test_system: (NPNA)3 (Plasmodium falciparum)
protocol: BLI, target on sensor
assay_readout: Kd (nM)

INSERT INTO assay_data (binder, unit_abbreviation, test_value) VALUES
  ('AB-007030 (antibody, V domains shown) VH: QMQLVESGGGVVQPGRSLRLSCTASGFTFSTYAMHWVRQSPGQGLEWVAVISYHSTNKYYADSVRGRFTISRDNSKNTLYLQMNSLRAEDTAVYYCARDGYSSSFFDFWGQGTLVTVSS VL: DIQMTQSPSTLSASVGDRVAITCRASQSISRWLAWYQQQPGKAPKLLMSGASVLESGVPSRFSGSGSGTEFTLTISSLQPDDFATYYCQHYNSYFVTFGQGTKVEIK', 'nM', 0.192),
  ('AB-007067 (antibody, V domains shown) VH: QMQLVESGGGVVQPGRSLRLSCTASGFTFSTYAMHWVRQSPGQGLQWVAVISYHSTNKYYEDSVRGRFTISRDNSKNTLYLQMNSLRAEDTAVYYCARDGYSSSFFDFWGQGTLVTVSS VL: DIQMTQSPSTLSASVGDRVAITCRASQSISRWLAWYQQQPGKAPKLLMSSASVLESGVPSRFSGSGSGTEFTLTISSLQPDDFATYYCQHYNSYFVTFGQGTKVEIK', 'nM', 2.02),
  ('AB-007057 (antibody, V domains shown) VH: QMQLVESGGGVVQPGRSLRLSCTASGFTFSTYAMHWVRQSPGQGLQWVAVISYHSTNKYYEDSVRGRFTISRDNSKNTLYLQMNSLRAEDTAVYYCARDGYHSSFFDFWGQGTLVTVSS VL: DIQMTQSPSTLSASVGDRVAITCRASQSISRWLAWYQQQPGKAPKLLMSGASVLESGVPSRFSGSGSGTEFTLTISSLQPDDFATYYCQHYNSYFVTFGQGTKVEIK', 'nM', 0.311),
  ('AB-007039 (antibody, V domains shown) VH: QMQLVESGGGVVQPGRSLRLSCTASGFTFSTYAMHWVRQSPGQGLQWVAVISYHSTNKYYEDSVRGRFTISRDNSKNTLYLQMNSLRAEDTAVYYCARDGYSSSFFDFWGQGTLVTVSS VL: DIQMTQSPSTLSASVGDRVAITCRASQSISRWLAWYQQQPGKAPKLLMSGASVLESGVPSRFSGSGSGTEFTLTISSLQPDDFATYYCQHYNSYSVTFGQGTKVEIK', 'nM', 0.812),
  ('AB-007058 (antibody, V domains shown) VH: QMQLVESGGGVVQPGRSLRLSCTASGFTFSTYAMHWVRQSPGQGLQWVAVISYHSTNKYYEDSVRGRFTISRDNSKNTLYLQMNSLRAEDTAVYYCARDGYSTSFFDFWGQGTLVTVSS VL: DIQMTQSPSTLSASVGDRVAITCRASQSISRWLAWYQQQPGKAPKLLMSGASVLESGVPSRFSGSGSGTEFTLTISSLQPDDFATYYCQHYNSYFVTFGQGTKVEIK', 'nM', 1.3),
  ('AB-007045 (antibody, V domains shown) VH: QMQLVESGGGVVQPGRSLRLSCTASGFTFSTYAMHWVRQSPGQGLQWVAVISYHSTNKYYEDSVRGRFTISRDNSKNTLYLQMNSLRAEDTAVYYCARDAYSSSFFDFWGQGTLVTVSS VL: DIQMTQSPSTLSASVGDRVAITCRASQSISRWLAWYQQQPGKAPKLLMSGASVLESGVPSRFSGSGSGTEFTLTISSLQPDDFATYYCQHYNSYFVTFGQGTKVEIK', 'nM', 0.734),
  ('AB-007038 (antibody, V domains shown) VH: QMQLVESGGGVVQPGRSLRLSCTASGFTFSTYAMHWVRQSPGQGLQWVAVISYHSTNKYYEDSVRGRFTISRDNSKNTLYLQMNSLRAEDTAVYYCARDGYSSSFFDYWGQGTLVTVSS VL: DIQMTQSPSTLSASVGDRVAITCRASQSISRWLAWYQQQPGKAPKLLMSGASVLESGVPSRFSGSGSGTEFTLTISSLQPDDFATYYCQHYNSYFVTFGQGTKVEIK', 'nM', 0.544),
  ('AB-007074 (antibody, V domains shown) VH: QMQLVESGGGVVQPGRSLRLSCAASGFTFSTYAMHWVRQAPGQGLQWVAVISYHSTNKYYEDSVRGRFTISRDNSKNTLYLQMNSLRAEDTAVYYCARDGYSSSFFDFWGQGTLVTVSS VL: DIQMTQSPSTLSASVGDRVTITCRASQSISRWLAWYQQQPGKAPKLLMSGASVLESGVPSRFSGSGSGTEFTLTISSLQPDDFATYYCQHYNSYYVTFGQGTKVEIK', 'nM', 0.206),
  ('AB-007051 (antibody, V domains shown) VH: QMQLVESGGGVVQPGRSLRLSCTASGFTFSTYAMHWVRQSPGQGLQWVAVISYHSRNKYYEDSVRGRFTISRDNSKNTLYLQMNSLRAEDTAVYYCARDGYSSSFFDFWGQGTLVTVSS VL: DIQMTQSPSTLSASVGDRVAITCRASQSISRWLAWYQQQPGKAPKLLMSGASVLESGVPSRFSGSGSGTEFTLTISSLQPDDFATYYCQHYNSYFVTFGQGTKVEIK', 'nM', 0.591),
  ('AB-007032 (antibody, V domains shown) VH: QVQLVESGGGVVQPGRSLRLSCAASGFTFSTYAMHWVRQAPGQGLQWVAVISYHSTNKYYEDSVRGRFTISRDNSKNTLYLQMNSLRAEDTAVYYCARDGYSSSFFDFWGQGTLVTVSS VL: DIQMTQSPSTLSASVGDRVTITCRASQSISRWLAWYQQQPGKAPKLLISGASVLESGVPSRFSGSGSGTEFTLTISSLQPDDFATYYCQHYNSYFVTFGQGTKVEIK', 'nM', 0.169);
